This collection of values is drawn from paper PMC5540273.

# Tested on: CDK7
# condition_notes: concentration: 1 μM, replicates: in singlicate; n = 1;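 note: KINOMEscan kinase panel screen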
# strict inequality: %Inh < 2% yields criterion met, everything else yields criterion not met

Example cases with answers are listed next.
[[record]]
molecule = "Cc1ccc(C)c(NC(=O)NC2CCN(c3ccnc(Nc4ccc(F)cc4)n3)C2)c1 (centres unmarked)"
cat = "criterion met"

[[record]]
molecule = "O=C(Nc1cccc(-c2nn3ncccc3c2-c2ccnc(Nc3ccccc3)n2)c1)c1c(F)cccc1F"
cat = "criterion met"

[[record]]
molecule = "CCn1c(-c2nonc2N)nc2c(C#CC(C)(C)O)nc(OC[C@H](N)c3ccccc3)cc21"
cat = "criterion not met"

[[record]]
molecule = "COc1cccc(NC(=O)NC2CCN(c3ccnc(Nc4cc(OC)c(OC)c(OC)c4)n3)C2)c1 (centres unmarked)"
cat = "criterion met"

[[record]]
molecule = "COC(=O)Nc1nc2ccc(Oc3ccc(NC(=O)Nc4cc(C(F)(F)F)ccc4F)cc3)cc2n1C.Cl"
cat = "criterion not met"


Challenge: Report whether reported %Inh is lower than 2% (strictly) for O=C(Nc1n[nH]c2cc(-c3ccoc3)ccc12)C1CC1
Response given: criterion not met

Challenge: Report whether reported %Inh is lower than 2% (strictly) for C[C@@H]1CC[C@@H](C(=O)Nc2ccccc2)CN1c1cc(-c2ccc3c(N)n[nH]c3c2)nc(N)n1
Response given: criterion met

====

Property: %Inh; scope: individual compounds
# Test system: HASPIN
# Construct: gene GSG2
# condition_notes: concentration: 1 μM, replicates: in singlicate; n = 1
Please state the figure in %; there is no need to write the unit.

Example compounds with recorded %Inh:
[[record]]
compound = "c1ccc(Oc2ccc(Nc3ccnc4cc(-c5ccc(CNCCN6CCOCC6)o5)ccc34)cc2)nc1"
recorded_value = 43

[[record]]
compound = "Cn1cc(-c2ccc3c(c2)CCN3C(=O)Cc2cccc(Cl)c2)c2c(N)ncnc21"
recorded_value = 2

[[record]]
compound = "Cc1cccc(NC(=O)Nc2ccc(Oc3ncnc4ccn(C)c34)cc2)c1"
recorded_value = 0

[[record]]
compound = "CCn1c(-c2nonc2N)nc2c(C#CC(C)(C)O)nc(OC[C@H](N)c3ccccc3)cc21"
recorded_value = 22

[[record]]
compound = "Cl.Cl.NCC(NCc1ccc(-c2ccnc3[nH]ccc23)s1)c1ccccc1 (centres unmarked)"
recorded_value = 99.8

[[record]]
compound = "CCS(=O)(=O)c1ccc(OC)c(Nc2nccc(-c3c(-c4cccc(NC(=O)c5c(F)cccc5F)c4)nn4ncccc34)n2)c1"
recorded_value = 0

[[record]]
compound = "COc1cccc(NC(=O)NC2CCN(c3ccnc(Nc4cc(OC)c(OC)c(OC)c4)n3)C2)c1 (centres unmarked)"
recorded_value = 0

[[record]]
compound = "FC(F)(F)c1ccc(/C=C/c2cncnc2Nc2ccc3[nH]c(Cc4ccccc4)nc3c2)cc1"
recorded_value = 12


Challenge: Under HASPIN: %Inh value of O=C(Nc1n[nH]c2cc(-c3ccoc3)ccc12)C1CC1 ?
Response given: 27

Challenge: Under HASPIN: %Inh value of CN1CCN(CCCNc2nccc(-c3c(-c4ccc(F)cc4)nn4cc(C(F)(F)F)ccc34)n2)CC1 ?
Response given: 0

Challenge: Under HASPIN: %Inh value of COc1cc(Nc2nccc(-c3c(-c4cccc(NC(=O)c5c(F)cccc5F)c4)nn4ccccc34)n2)cc(OC)c1OC ?
Response given: 0

Challenge: Under HASPIN: %Inh value of O=C(Nc1n[nH]c2nc(-c3ccc(O)cc3)ccc12)C1CC1 ?
Response given: 36

Challenge: Under HASPIN: %Inh value of COc1cccc(-c2ccc3c(NC(=O)C4CC4)n[nH]c3n2)c1 ?
Response given: 32

Challenge: Under HASPIN: %Inh value of O=C(Nc1ccccc1F)NC1CCN(c2ccnc(Nc3ccc(F)cc3)n2)CC1 ?
Response given: 9

Challenge: Under HASPIN: %Inh value of Cl.c1ccc(-c2ccc3c(Nc4ccc5[nH]ccc5c4)ccnc3c2)nc1 ?
Response given: 23

Challenge: Under HASPIN: %Inh value of COC(=O)Nc1nc2ccc(Oc3ccc(NC(=O)Nc4cc(C(F)(F)F)ccc4F)cc3)cc2n1C.Cl ?
Response given: 50

Challenge: Under HASPIN: %Inh value of Cl.Cl.NCC(NC(=O)c1cc(-c2ccccc2)c(-c2ccnc3[nH]ccc23)s1)c1ccccc1 (centres unmarked) ?
Response given: 90.3

====

Property: %Inh; scope: individual compounds
# System: QSK
# condition_notes: concentration: 1 μM, replicates: in singlicate; n = 1
Please state the figure in %; there is no need to write the unit.

Example compounds with recorded %Inh:
[[record]]
compound = "Nc1n[nH]c2cnc(-c3ccccc3)cc12"
value_type = "%Inh"
recorded_value = 0

[[record]]
compound = "C[C@@H](Oc1cc(-n2cnc3cc(-c4ccnc(NCCS(C)(=O)=O)c4)ccc32)sc1C(N)=O)c1ccccc1Cl"
value_type = "%Inh"
recorded_value = 14

[[record]]
compound = "Cc1ccc(F)c(C(=O)Nc2cccc(-c3nn4ccccc4c3-c3ccnc(Nc4cccc(F)c4)n3)c2)c1F"
value_type = "%Inh"
recorded_value = 17

[[record]]
compound = "O=C(NC1CCN(c2ccnc(Nc3ccc(F)cc3)n2)C1)c1cc2ccccc2s1 (centres unmarked)"
value_type = "%Inh"
recorded_value = 10

[[record]]
compound = "O=C(Nc1n[nH]c2cc(-c3ccoc3)ccc12)C1CC1"
value_type = "%Inh"
recorded_value = 11

[[record]]
compound = "Cc1ccc(C(=O)Nc2ccc(Nc3ccnc4cc(-c5nccs5)ccc34)cc2O)cc1.Cl"
value_type = "%Inh"
recorded_value = 0

[[record]]
compound = "CCCCc1nn2ncccc2c1-c1ccnc(Nc2ccc(N3CCN(C)CC3)cc2)n1"
value_type = "%Inh"
recorded_value = 43


Challenge: Report %Inh for COCCOCCOc1cc2ncc3c4ccc(C#N)cc4[nH]c3c2cc1OC please.
Response given: 67

====

# System: HIPK4
# condition_notes: concentration: 1 μM, replicates: in singlicate; n = 1
Property: %Inh; scope: individual molecules
Please state the figure in %; there is no need to write the unit.

Example molecules with recorded %Inh:
[[record]]
molecule = "CC(C)(C)c1ccc2nccc(Nc3cccc(O)c3)c2c1 [GW856795]"
target_system = "HIPK4"
measure_unit = "%"
recorded_value = 0

[[record]]
molecule = "c1ccc(-c2n[nH]cc2Nc2ccnc3ccccc23)nc1 [GW694077]"
target_system = "HIPK4"
measure_unit = "%"
recorded_value = 47

[[record]]
molecule = "O=C(Nc1cccc(-c2nn3ccccc3c2-c2ccnc(Nc3cccc(F)c3)n2)c1)c1c(F)ccc(F)c1Cl [GSK357952]"
target_system = "HIPK4"
measure_unit = "%"
recorded_value = 51

[[record]]
molecule = "Cc1ccc(C)c(NC(=O)NC2CCN(c3ccnc(Nc4ccc(F)cc4)n3)C2)c1 (stereo not shown) [GSK1379720]"
target_system = "HIPK4"
measure_unit = "%"
recorded_value = 0


Challenge: Report %Inh for O=C(Nc1n[nH]c2nc(-c3ccc(O)cc3)ccc12)C1CC1 [SB-710363] please.
Response given: 21

Challenge: Report %Inh for O=C(Nc1n[nH]c2cc(-c3ccoc3)ccc12)C1CC1 [SB-738481] please.
Response given: 46

Challenge: Report %Inh for COc1cc(Nc2nccc(-c3c(-c4cccc(NC(=O)c5c(F)cccc5F)c4)nn4ccccc34)n2)cc(OC)c1OC [GSK323521] please.
Response given: 14

Challenge: Report %Inh for CCc1ccc(-c2ccc3c(c2)-c2c(cnn2C)S(=O)(=O)N3C)cc1 please.
Response given: 8

Challenge: Report %Inh for c1ccc(-c2cnc3nccnn23)cc1 [AH20685] please.
Response given: 0

Challenge: Report %Inh for CN(C)Cc1ccc(-c2ccc3c(Nc4ccc(Oc5ccccn5)cc4)ccnc3c2)o1 [GW567148] please.
Response given: 0

====

Property: %Inh; scope: individual compounds
# Test system: CDK2
# condition_notes: concentration: 1 μM, replicates: in singlicate; n = 1
Please state the figure in %; there is no need to write the unit.

[[record]]
compound = "CN1CCN(Cc2cccc(-c3ccc4c(Nc5ccc(Oc6ccccc6)cc5)ccnc4c3)c2)CC1 [GW578342]"
value_type = "%Inh"
measure_unit = "%"
recorded_value = 0

[[record]]
compound = "COc1cc(Nc2nccc(-c3c(-c4cccc(NC(=O)c5c(F)cccc5F)c4)nn4ncccc34)n2)cc(OC)c1OC [GSK327238]"
value_type = "%Inh"
measure_unit = "%"
recorded_value = 0


Challenge: Report %Inh for COc1ccc(-c2coc3ccc(-c4nnc(SCc5ccc(OC)c(C(F)(F)F)c5)o4)cc23)cc1 please.
Response given: 1

Challenge: Report %Inh for CN1CCN(CCCNc2nccc(-c3c(-c4ccc(F)cc4)nn4cc(C(F)(F)F)ccc34)n2)CC1 [GW621581] please.
Response given: 0

Challenge: Report %Inh for Nc1ncc(-c2cccnc2)c2scc(-c3ccc4c(c3)CCN4C(=O)Cc3ccccc3)c12 [GSK683281] please.
Response given: 0

Challenge: Report %Inh for Cn1cc(-c2[nH]c3cc(NC(=O)[C@H](N)C4CCCCC4)cc4c3c2C=NNC4=O)cn1 please.
Response given: 8
